Molecular target: human PAD4 (hPAD4) (Homo sapiens, UniProt Q9UM07)
Sequence (Q9UM07 whole entry): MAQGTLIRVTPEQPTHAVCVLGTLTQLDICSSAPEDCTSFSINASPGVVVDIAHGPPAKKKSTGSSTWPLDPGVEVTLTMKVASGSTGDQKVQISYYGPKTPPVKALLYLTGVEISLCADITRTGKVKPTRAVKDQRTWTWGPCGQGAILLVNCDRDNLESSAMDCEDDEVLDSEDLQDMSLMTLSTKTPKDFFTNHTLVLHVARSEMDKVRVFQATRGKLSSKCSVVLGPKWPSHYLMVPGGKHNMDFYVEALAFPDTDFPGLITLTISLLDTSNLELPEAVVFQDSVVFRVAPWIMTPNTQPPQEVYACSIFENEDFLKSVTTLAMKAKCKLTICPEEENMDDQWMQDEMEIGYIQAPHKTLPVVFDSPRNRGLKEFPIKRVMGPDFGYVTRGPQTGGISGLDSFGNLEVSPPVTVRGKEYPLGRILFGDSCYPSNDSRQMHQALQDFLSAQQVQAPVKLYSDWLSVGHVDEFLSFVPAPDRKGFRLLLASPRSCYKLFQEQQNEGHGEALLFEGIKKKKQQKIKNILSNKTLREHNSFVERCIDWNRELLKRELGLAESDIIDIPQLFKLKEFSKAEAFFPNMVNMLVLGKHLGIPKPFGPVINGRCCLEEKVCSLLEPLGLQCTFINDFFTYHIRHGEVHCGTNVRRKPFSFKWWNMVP
Test: RFMS human PAD4 functional assay (rapid-fire mass spectrum)
Conditions: 5 nM hPAD4 enzyme, 250 μM BAEE, 50 μM Calcium; 30 min preincubation, 90 min reaction at 37° C.
measurement_name: pIC50
pIC50 (log units): -log10 of the concentration in mol/L.

So what does the record say about pIC50 for "COc1cc(C(=O)N2C[C@H]3CC[C@@H]2[C@@H]3N)cc2nc(-c3cc4cccnc4n3CC3CC3)n(C[C@H]3CCNC3)c12" ?
7.70

Entry to check: "COC(=O)c1cccc(-n2cc(Cn3c(-c4cc5cccnc5n4CC4CC4)nc4cc(C(=O)N5C[C@H](N)C[C@@H](F)C5)cc(OC)c43)cn2)n1"
7.59

Entry to check: "CCc1ccccc1-c1nc2cc(C(=O)N3C[C@H]4CC[C@@H]3[C@@H]4N)cc(OC)c2n1CC1CN(c2cncc(C#N)c2)C1"
6.42

====

Target: human PAD4 (hPAD4) (Homo sapiens, UniProt Q9UM07)
Experiment: RFMS human PAD4 functional assay (rapid-fire mass spectrum)
Settings: 5 nM hPAD4 enzyme, 250 μM BAEE, 50 μM Calcium; 30 min preincubation, 90 min reaction at 37° C.
Known pIC50 of a selection of molecules
pIC50 (log units): -log10 of the concentration in mol/L.

So what does the record say about pIC50 for "COc1cc(C(=O)N2C[C@H]3CC[C@@H]2[C@@H]3N)cc2nc(-c3cc4cccnc4n3CC3CC3)n(C3CN(C(=O)c4ccnc(C#N)c4)C3)c12" ?
6.51

Entry to check: "COc1cc(C(=O)N2C[C@H]3CC[C@@H]2[C@@H]3N)cc2nc(-c3cc4cc(Cl)ccc4n3C)n(CC3CN(c4cncc(C#N)n4)C3)c12"
6.77

Entry to check: "CCn1cc(Cn2c(-c3cc4cccnc4n3CC3CC3)nc3cc(C(=O)N4C[C@H](N)C[C@@H](F)C4)cc(OC)c32)cn1"
6.87

Entry to check: "C=CC(=O)N1CC(Cn2c(-c3cc4cccnc4n3CC3CC3)nc3cc(C(=O)N4C[C@H]5CC[C@@H]4[C@@H]5N)cc(OC)c32)C1"
6.99

Entry to check: COc1cc(C(=O)N2CC3CCC2[C@@H]3N)cc2nc(-c3cc4cccnc4n3CC3CC3)n([C@H]3C[C@@H](NS(C)(=O)=O)C3)c12 (stereo partly drawn)
5.68

Entry to check: "COc1cc(N2CC(Cn3c(-c4cc5cccnc5n4CC4CC4)nc4cc(C(=O)N5C[C@H]6CC[C@@H]5[C@@H]6N)cc(OC)c43)C2)ccn1"
6.90

====

Target: human PAD4 (hPAD4) (Homo sapiens)
Assay: RFMS human PAD4 functional assay (rapid-fire mass spectrum)
Conditions: 5 nM hPAD4 enzyme, 250 μM BAEE, 50 μM Calcium; 30 min preincubation, 90 min reaction at 37° C.
Labelling field: enter true (1) if recorded IC50 is less than 0.04 µM. Enter false (0) if it equals or exceeds that cut-off.

Reference set (2 entries):
COc1cc(C(=O)N2C[C@H](N)C[C@@H](F)C2)cc2nc(-c3cc4cccnc4n3CC3CC3)n(Cc3cnn(-c4cccc(C)n4)c3)c12 ... true (1)
COc1cc(C(=O)N2C[C@H]3CC[C@@H]2[C@@H]3N)cc2nc(-c3cc4cccnc4n3CC3CC3)n(CC3CN(c4nc(C#N)ncc4C#N)C3)c12 ... false (0)

Say whether its IC50 is strictly beneath 0.04 µM. Entry: "COc1cc(C(=O)N2C[C@H]3CC[C@@H]2[C@@H]3N)cc2nc(-c3cc4cccnc4n3CC3CC3)n(C[C@H]3CCN(c4cncnc4C#N)C3)c12"
false (0)

Entry to check: "COc1ccc2cc(-c3nc4cc(C(=O)N5C[C@H]6CC[C@@H]5[C@@H]6N)cc(OC)c4n3CC3CN(c4cccc(C#N)n4)C3)n(CC3CC3)c2n1"
false (0)

Entry to check: "COc1cc(C(=O)N2C[C@H]3CC[C@@H]2[C@@H]3N)cc2nc(-c3cccn3CC3CC3)n(CC3CN(c4ccnc(C#N)n4)C3)c12"
false (0)

Entry to check: COc1cc(C(=O)N2CC3CCC2[C@@H]3N)cc2nc(-c3cc4cccnc4n3CC3CC3)n(Cc3cnn(C)c3C)c12 (stereo partly drawn)
false (0)

====

Known pIC50 of a selection of compounds
Biological target: human PAD4 (hPAD4) (Homo sapiens)
Experiment: RFMS human PAD4 functional assay (rapid-fire mass spectrum)
Conditions: 5 nM hPAD4 enzyme, 250 μM BAEE, 50 μM Calcium; 30 min preincubation, 90 min reaction at 37° C.
pIC50 (log units): -log10 of the concentration in mol/L.

COc1cc(C(=O)N2C[C@H]3CC[C@@H]2[C@@H]3N)cc2nc(-c3cc4cccnc4n3CC3CC3)n(CC3CN(c4nccs4)C3)c12 ... 6.92
COC(=O)N1CC(Cn2c(-c3cc4cccnc4n3CC3CC3)nc3cc(C(=O)N4CCC[C@@H](N)C4)cc(OC)c32)C1 ... 5.80

For the next question, use this compound.
So what does the record say about pIC50 for "COc1cc(C(=O)N2C[C@H](N)C[C@@H](F)C2)cc2nc(-c3cc4ccccc4n3CC3CC3)n(CC3CC3)c12" ?
6.52

====

Target: UniProt Q9UM07
Experiment: RFMS human PAD4 functional assay (rapid-fire mass spectrum)
Details: 5 nM hPAD4 enzyme, 250 μM BAEE, 50 μM Calcium; 30 min preincubation, 90 min reaction at 37° C.
Procedure: Compounds of the present invention were assayed as inhibitors of PAD4 using the assay protocol described below. RFMS tinman PAD4 Functional Assay: Compounds were solubilized in 100% DMSO to achieve a 10 mM compound concentration. Compound stock solutions were stored at RT. A series of dilutions were prepared in DMSO and mixed 8 times with 20 μl, mixing volume. Final top concentration of compound in the assay is 50 μM. […]
measurement_name: IC50 (nM)
Numeric answer only, unit nM assumed.

COc1cc(C(=O)N2CC3CCC2[C@@H]3N)cc2nc(-c3cccn3CC3CC3)n(CC3CN(c4cncc(C#N)n4)C3)c12 (stereo partly shown) [Example 313] ... 403
COc1cc(C(=O)N2C[C@H]3CC[C@@H]2[C@@H]3N)cc2nc(-c3cc4cccnc4n3CC3CC3)n(C[C@H]3CCN(c4nccnc4C#N)C3)c12 [Example 202] ... 21

Hello, I am looking for reported IC50 with UniProt Q9UM07 for COc1cc(C(=O)N2C[C@H](N)C[C@@H](F)C2)cc2nc(-c3cc4ccccc4n3CC3CC3)n(Cc3cnn(C)c3)c12 [Example 257] . Could you help?
41

Entry to check: COc1cc(C(=O)N2C[C@H]3CC[C@@H]2[C@@H]3N)cc2nc(-c3cc4ccccc4n3C)n(CC3CN(c4cncc(C#N)n4)C3)c12 [Example 41]
100

====

Known pIC50 of a selection of compounds
Molecular target: human PAD4 (hPAD4) (Homo sapiens, UniProt Q9UM07)
Experiment: RFMS human PAD4 functional assay (rapid-fire mass spectrum)
Conditions: 5 nM hPAD4 enzyme, 250 μM BAEE, 50 μM Calcium; 30 min preincubation, 90 min reaction at 37° C.
pIC50 (log units): -log10 of the concentration in mol/L.

Hello, I am looking for reported pIC50 with human PAD4 (hPAD4) (Homo sapiens, UniProt Q9UM07) for COc1cc(C(=O)N2CC3CCC2[C@@H]3N)cc2nc(-c3cc4ccccc4n3CC3CC3)n(CC3CN(C(=O)[C@H]4C[C@@H]4C)C3)c12 (stereo partly drawn) . Could you help?
7.38

Entry to check: COc1cc(C(=O)N2CC3CCC2[C@@H]3N)cc2nc(-c3cc4cccnc4n3CC3CC3)n(Cc3cn(C)nc3C)c12 (stereo partly drawn)
6.96

Entry to check: COc1cc(C(=O)N2C[C@H](N)C[C@@H](F)C2)cc2nc(-c3cc4ccccc4n3CC3CC3)n(CC3CC(=O)N(C)C3)c12 (mixture of isomers)
6.19

Entry to check: "N[C@@H]1[C@@H]2CC[C@H]1N(C(=O)c1cc(Cl)c3c(c1)nc(-c1cc4cccnc4n1CC1CC1)n3CC1CN(C(=O)c3ccccc3)C1)C2"
7.39

====

Known pIC50 of a selection of molecules
Molecular target: UniProt:Q9UM07
Assay: RFMS human PAD4 functional assay (rapid-fire mass spectrum)
Details: 5 nM hPAD4 enzyme, 250 μM BAEE, 50 μM Calcium; 30 min preincubation, 90 min reaction at 37° C.
Description: Compounds of the present invention were assayed as inhibitors of PAD4 using the assay protocol described below. RFMS tinman PAD4 Functional Assay: Compounds were solubilized in 100% DMSO to achieve a 10 mM compound concentration. Compound stock solutions were stored at RT. A series of dilutions were prepared in DMSO and mixed 8 times with 20 μl, mixing volume. Final top concentration of compound in the assay is 50 μM. […]
pIC50 (log units): -log10 of the concentration in mol/L.

COc1cc(C(=O)N2C[C@H]3CC[C@@H]2[C@@H]3N)cc2nc(-c3cc4cccnc4n3C)n(C[C@@H]3CCN(c4ncccn4)C3)c12 ... 6.51
COc1cc(C(=O)N2CC3CCC2[C@@H]3N)cc2nc(-c3cc4ccccc4n3CC3CC3)n(Cc3cnn(C)c3C)c12 (stereo partly drawn) ... 7.64
COc1cc(C(=O)N2CC3CCC2[C@@H]3N)cc2nc(-c3cc4ccccc4n3CC3CC3)n(C[C@H]3CCN(c4ccnc(C)n4)C3)c12 (stereo partly drawn) ... 7.72
CC#CC(=O)N1CC(Cn2c(-c3cc4cccnc4n3CC3CC3)nc3cc(C(=O)N4C[C@H]5CC[C@@H]4[C@@H]5N)cc(OC)c32)C1 ... 7.57

Hello, I am looking for reported pIC50 with UniProt:Q9UM07 for COc1cc(C(=O)N2CC3CCC2[C@@H]3N)cc2nc(-c3cc4ccccc4n3CC3CC3)n(Cc3cnn(-c4cnccn4)c3)c12 (stereo partly drawn) . Could you help?
7.64

Entry to check: COc1cc(C(=O)N2C[C@H]3CC[C@@H]2[C@@H]3N)cc2nc(-c3cc4cccnc4n3CC3CC3)n(C3CN(c4cnc(C#N)nc4)C3)c12 [Example 75]
6.67

Entry to check: COc1cc(C(=O)N2CC3CCC2[C@@H]3N)cc2nc(-c3cc4ccccc4n3CC3CC3)n(CC3CN(C(=O)Nc4ccccc4)C3)c12 (stereo partly drawn)
7.12

Entry to check: "COc1cc(C(=O)N2C[C@H]3CC[C@@H]2[C@@H]3N)cc2nc(-c3cc4cccnc4n3CC3CC3)n(CC3CN(C(=O)c4ccnc(F)c4)C3)c12"
7.01

Entry to check: "COc1cc(C(=O)N2C[C@H]3CC[C@@H]2[C@@H]3N)cc2nc(-c3cc4ccccc4n3CC3CC3)n(CC3CN(C(=O)c4cccc(C#N)c4)C3)c12"
7.85

Entry to check: "COc1cc(C(=O)N2C[C@H](N)C[C@@H](F)C2)cc2nc(-c3cc4cccnc4n3CC3CC3)n(Cc3cnn(-c4cncc(F)c4)c3)c12"
7.16

Entry to check: COc1cc(C(=O)N2CC3CCC2[C@@H]3N)cc2nc(-c3cc4cccnc4n3CC3CC3)n(CC3(C)CN(C(=O)c4ccccc4)C3)c12 (stereo partly drawn)
7.37

Entry to check: COc1cc(C(=O)N2CC3CCC2[C@@H]3N)cc2nc(-c3cc4ccccc4n3CC3CC3)n(CC3CC(F)(F)C3)c12 (stereo partly drawn)
7.32
